Here the recorded Kd is given for each entry.
- target_under_test: T1, cynomolgus IgE (recombinant chimaeric D12 variable region and cynomolgus IgE constant region) (cynomolgus monkey (constant region); …)
- T1 construct: The entries may hold a leader peptide; also called cyno IgE; cynomolgus monkey IgE
- test: SPR BIAcore; IgG captured on protein G', IgE analyte, bivalent analyte fit; geomean
Quick note: give the figure in nM, leave out the unit.

binder	Kd (nM)
Antibody 19 IgG (antibody, V domains shown, Whole human IgG (section 1.4, IgG1)) VH: QVQLVQSGAEVKKPGATVKLSCKVYGYIFTDYNIYWVRQAPGKGLEWMGLIDPDNGETFYAEKFQGRATMTADTSSDRAYMELTSLTFEDTATYYCATVMGKWIKGGYDYWGRGTLVTVSS VL: QSVLTQPPSVSGAPGQRVTISCTGSSSNIGAGYDVHWYQQLPGTAPKLLIYDNFNRPSGVPDRFSGSKSGTSASLAIIGLQTEDEADYYCQSYDSTLSHSPFGTGTKLTVL	7.9

Then this binder:
Returns the measured Kd for the input binder. Input: Antibody 5 IgG (antibody, V domains shown, Whole human IgG (section 1.4, IgG1)) VH: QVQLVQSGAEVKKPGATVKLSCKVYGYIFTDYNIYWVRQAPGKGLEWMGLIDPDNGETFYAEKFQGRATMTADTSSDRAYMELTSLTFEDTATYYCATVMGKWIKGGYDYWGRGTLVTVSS VL: QSVLTQPPSVSGAPGQRVTISCTGSSSNIGAGYDVHWYQQLPGTAPKLLIYDNFNRPSGVPDRFSGSKSGTSASLAIIGLQTEDEADYYCQSYDSTKHTSPFGTGTKLTVL
7.9
